system: batrachotoxin (BTX) binding site of the sodium channel; assay: Affinity to the batrachotoxin (BTX) binding site of the sodium channel; conditions: Table III; rat cerebrocortex synaptosomes; test concentration not given
observation-type: BTX inhibition
Lab note: jot down the number only; don't add units.

Reference set (4 entries):
{"molecule": "CSCCC1NC2(CCN(C(=O)c3cccnc3Oc3ccccc3)CC2)N(Cc2ccccc2[N+](=O)[O-])C1=O (centres unmarked) [Example 298]", "observation-type": "BTX inhibition", "reported-result": 48}
{"molecule": "O=C(c1ccc2nonc2c1)N1CCC2(CC1)NCC(=O)N2Cc1ccccc1F [Example 304]", "observation-type": "BTX inhibition", "reported-result": 33}
{"molecule": "CCCc1ccc(C(=O)N2CCC3(CC2)NC(CC(C)C)C(=O)N3Cc2c(Cl)cccc2Cl)cc1 (centres unmarked) [Example 317]", "observation-type": "BTX inhibition", "reported-result": 62}
{"molecule": "CCCCN1C(=O)C(Cc2ccccc2)NC12CCN(C(=O)c1ccc(I)cc1)CC2 (centres unmarked) [Example 207]", "observation-type": "BTX inhibition", "reported-result": 57}

So what does the record say about BTX inhibition for CC(C)CC1NC2(CCN(C(=O)c3ccc(-c4ccccc4)cc3)CC2)N(Cc2ccc(F)cc2)C1=O (centres unmarked) [Example 101] ?
78

Follow-up entry: CCCc1c(C(=O)N2CCC3(CC2)NC(Cc2ccccc2)C(=O)N3CC(=O)OCC)cnn1-c1ccccc1 (centres unmarked) [Example 306]
68

Item: CCCCN1C(=O)C(Cc2ccccc2)NC12CCN(C(=O)c1cc(C(C)(C)C)nn1C)CC2 (centres unmarked) [Example 249]
34

Try this molecule too: CCCCCC(=O)N1CCC2(CC1)NC(C(C)C)C(=O)N2CCCC (centres unmarked) [Example 129]
30

====

test system: batrachotoxin (BTX) binding site of the sodium channel; experiment: Affinity to the batrachotoxin (BTX) binding site of the sodium channel; conditions: Table II; rat cerebrocortex synaptosomes; test concentration not given
Attribute: BTX inhibition

{"compound": "Cl.O=C(COc1ccccc1)N1CCC2(CC1)N[C@@H](Cc1ccccc1)C(=O)N2Cc1ccccc1 [Example 57]", "BTX inhibition": 44}
{"compound": "COc1ccc(CN2C(=O)[C@H](Cc3ccccc3)NC23CCN(C(=O)c2ccc(Cl)cc2)CC3)cc1.Cl (racemic) [Example 27]", "BTX inhibition": 79}
{"compound": "Cl.O=C(c1cccc(F)c1F)N1CCC2(CC1)N[C@@H](Cc1ccccc1)C(=O)N2Cc1ccccc1 [Example 54]", "BTX inhibition": 37}

As a next step, examine the compound that follows.
For Cl.O=C(CCc1ccccc1)N1CCC2(CC1)N[C@@H](Cc1ccccc1)C(=O)N2Cc1ccccc1 [Example 58] , what is its reported BTX inhibition?
46

====

tested on: batrachotoxin (BTX) binding site of the sodium channel; assay: Affinity to the batrachotoxin (BTX) binding site of the sodium channel; details: Table III; rat cerebrocortex synaptosomes; test concentration not given
Each record here notes measured BTX inhibition.

Answered cases to consult:
{"molecule": "CCCCN1C(=O)C(CCSC)NC12CCN(C(=O)C1COc3ccc(Cl)cc3C1)CC2 (stereo not shown)", "target-entity": "batrachotoxin (BTX) binding site of the sodium channel", "BTX inhibition": 56}
{"molecule": "CSCCC1NC2(CCN(C(=O)c3cccc(N(C)C)c3)CC2)N(Cc2cc(C)cc(C)c2)C1=O (stereo not shown)", "target-entity": "batrachotoxin (BTX) binding site of the sodium channel", "BTX inhibition": 59}
{"molecule": "COc1ccc(C(=O)N2CCC3(CC2)NCC(=O)N3Cc2ccccc2F)cc1", "target-entity": "batrachotoxin (BTX) binding site of the sodium channel", "BTX inhibition": 32}
{"molecule": "Cc1ccc(C(=O)N2CCC3(CC2)NC(CC(C)C)C(=O)N3Cc2c(Cl)cccc2Cl)c(F)c1F (stereo not shown)", "target-entity": "batrachotoxin (BTX) binding site of the sodium channel", "BTX inhibition": 62}
{"molecule": "CCOC(=O)CN1C(=O)C(Cc2ccccc2)NC12CCN(C(=O)c1ccc(NC(C)=O)cc1)CC2 (stereo not shown)", "target-entity": "batrachotoxin (BTX) binding site of the sodium channel", "BTX inhibition": 48}
{"molecule": "CC(C)CC1NC2(CCN(C(=O)c3ccc4nonc4c3)CC2)N(Cc2c(Cl)cccc2Cl)C1=O (stereo not shown)", "target-entity": "batrachotoxin (BTX) binding site of the sodium channel", "BTX inhibition": 61}

Please provide the recorded BTX inhibition for CCCCC(=O)N1CCC2(CC1)NC(Cc1ccccc1)C(=O)N2CC(=O)OCC (stereo not shown) , tested on batrachotoxin (BTX) binding site of the sodium channel.
36
